- Tested on: biotinyl-Trp-oxazolone
- Experimental protocol: self-aminoacylation, catalytic enhancement (BWO) (fold over background); higher = more active; k-Seq, kA / k0A0; sequences stand for … in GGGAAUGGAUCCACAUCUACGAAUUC…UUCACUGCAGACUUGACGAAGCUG
Fewer inactive variants are shown than the library holds.
Please note: Satisfied applies when self-aminoacylation is 3 or greater, and Not satisfied applies otherwise.

{"Sequence text": "CCACGCUUCAAGCAAUCGGUC [Fam1B.1 aminoacylation ribozyme variant]", "Classification": "Satisfied"}
{"Sequence text": "UUACUUCAAGCAAUCGGUCUG [Fam1A.1 aminoacylation ribozyme variant]", "Classification": "Satisfied"}
{"Sequence text": "AAGUUUGCGAAUAUUCGCAAG [Fam3.1 aminoacylation ribozyme variant]", "Classification": "Not satisfied"}
{"Sequence text": "CUACUUCAAGCUAUCGGUCUG [Fam1A.1 aminoacylation ribozyme variant]", "Classification": "Not satisfied"}
{"Sequence text": "AGGUUUGAUAAUAGUCGCAAG [Fam3.1 aminoacylation ribozyme variant]", "Classification": "Not satisfied"}

Answer whether self-aminoacylation of CUACAUCAACCAAUCGGUCUG [Fam1A.1 aminoacylation ribozyme variant] is greater than or equal to 3.
Not satisfied

Answer whether self-aminoacylation of CUACUGCAAACAAUCGAUCUG [Fam1A.1 aminoacylation ribozyme variant] is greater than or equal to 3.
Not satisfied

Answer whether self-aminoacylation of AUUCAGCUAAGUCAUCGGGUG [Fam2.2 aminoacylation ribozyme variant] is greater than or equal to 3.
Not satisfied

Answer whether self-aminoacylation of AUUCACCUAGGUCAUCUGUUG [Fam2.2 aminoacylation ribozyme variant] is greater than or equal to 3.
Not satisfied

Answer whether self-aminoacylation of AUUACCCUGGUUCUCGAGUGA [Fam2.1 aminoacylation ribozyme variant] is greater than or equal to 3.
Satisfied

Answer whether self-aminoacylation of AAUCACCUAGGUCAUAGGGUG [Fam2.2 aminoacylation ribozyme variant] is greater than or equal to 3.
Not satisfied

Answer whether self-aminoacylation of CUACUUCAACCAAUCGGGCUG [Fam1A.1 aminoacylation ribozyme variant] is greater than or equal to 3.
Satisfied

Answer whether self-aminoacylation of AAGUUUGCUAAAAGUCACAAG [Fam3.1 aminoacylation ribozyme variant] is greater than or equal to 3.
Not satisfied

====

- Tested on: biotinyl-Val-oxazolone
- Experimental protocol: self-aminoacylation, catalytic enhancement (BVO) (fold over background); higher = more active; k-Seq, kA / k0A0; sequences stand for … in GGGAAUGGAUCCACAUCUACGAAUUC…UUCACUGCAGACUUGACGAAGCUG
Fewer inactive variants are shown than the library holds.
Hi there, I'd appreciate the recorded self-aminoacylation for every entry that follows.
One number for each entry.

{"Sequence text": "AUCCACCUAGGUCAUCGGGUC [Fam2.2 aminoacylation ribozyme variant]", "Recorded result": 2.04}

I'm hoping you can list self-aminoacylation for every sequence here, please.
1. CCACAUUUCCAGCAAUCGGUC [Fam1B.1 aminoacylation ribozyme variant]
2. AUUCACCUUGCUCAUCGGGUG [Fam2.2 aminoacylation ribozyme variant]

1: 2.04; 2: 2

I'm hoping you can list self-aminoacylation for every sequence here, please.
1. AUUACCAUGGUUAUCGAGUGA [Fam2.1 aminoacylation ribozyme variant]
2. AAGUUUGCGAAUAGUCGCAAA [Fam3.1 aminoacylation ribozyme variant]
3. AAGUUUUCUAAUAGUCACAAG [Fam3.1 aminoacylation ribozyme variant]
4. AUUCAUCUAGGUCAACGGGUG [Fam2.2 aminoacylation ribozyme variant]

4.79
1.57
1.64
2.61

Look up self-aminoacylation: CCACACUGCAAGCACUCGGUC [Fam1B.1 aminoacylation ribozyme variant]
1.66

====

Hi there, I'd appreciate the recorded self-aminoacylation for every entry that follows.
- Tested on: biotinyl-Val-oxazolone
- Experimental protocol: self-aminoacylation, catalytic enhancement (BVO) (fold over background); higher = more active; k-Seq, kA / k0A0; sequences stand for … in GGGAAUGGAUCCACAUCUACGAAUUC…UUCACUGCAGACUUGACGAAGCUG
Variants at the floor of the assay were thinned out.
Answers are plain numbers.

{"Sequence text": "CCACACUUAAAGGAAUCGGUC [Fam1B.1 aminoacylation ribozyme variant]", "self-aminoacylation": 1.01}
{"Sequence text": "CCACACUUCAAUCAAUUGGUC [Fam1B.1 aminoacylation ribozyme variant]", "self-aminoacylation": 0.616}

// below: self-aminoacylation requested for another sequence
Look up self-aminoacylation: CCACACUUAAAGCACUCGGUC [Fam1B.1 aminoacylation ribozyme variant]
1.11

====

- System: biotinyl-Phe-oxazolone
- Experimental protocol: self-aminoacylation, catalytic enhancement (BFO) (fold over background); higher = more active; k-Seq, kA / k0A0; sequences stand for … in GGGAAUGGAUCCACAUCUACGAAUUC…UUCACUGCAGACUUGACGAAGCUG
This sample holds only a part of the variants without activity.
Measured property: self-aminoacylation

{"Sequence text": "CUACAUCAAACAAUCGGCCUG [Fam1A.1 aminoacylation ribozyme variant]", "Assay system": "biotinyl-Phe-oxazolone", "self-aminoacylation": 2.89}
{"Sequence text": "ACACACUUCAAGCAAUCGGAC [Fam1B.1 aminoacylation ribozyme variant]", "Assay system": "biotinyl-Phe-oxazolone", "self-aminoacylation": 1.42}
{"Sequence text": "CUACUUCAAAGAAUCGGCCUG [Fam1A.1 aminoacylation ribozyme variant]", "Assay system": "biotinyl-Phe-oxazolone", "self-aminoacylation": 6.89}
{"Sequence text": "AUUCACCUCGGUCAUCCGGUG [Fam2.2 aminoacylation ribozyme variant]", "Assay system": "biotinyl-Phe-oxazolone", "self-aminoacylation": 78.8}
{"Sequence text": "CUACUUCAGACAAUCGGUCCG [Fam1A.1 aminoacylation ribozyme variant]", "Assay system": "biotinyl-Phe-oxazolone", "self-aminoacylation": 0.81}
{"Sequence text": "AAGUUCGCUAAUAGUCUCAAG [Fam3.1 aminoacylation ribozyme variant]", "Assay system": "biotinyl-Phe-oxazolone", "self-aminoacylation": 2.72}

// below: self-aminoacylation requested for another sequence
Look up self-aminoacylation: AUUACCCUUGUCACCGAGUGA [Fam2.1 aminoacylation ribozyme variant]
50.2

====

- Test system: biotinyl-Met-oxazolone
- Experimental protocol: self-aminoacylation, catalytic enhancement (BMO) (fold over background); higher = more active; k-Seq, kA / k0A0; sequences stand for … in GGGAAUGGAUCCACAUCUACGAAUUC…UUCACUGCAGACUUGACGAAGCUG
This sample holds only a part of the variants without activity.
Hi there, I'd appreciate the recorded self-aminoacylation for every entry that follows.
One number for each entry.

Reference set (3 entries):
{"Sequence text": "AAGUUUGCUGAUAGUCGCAAA [Fam3.1 aminoacylation ribozyme variant]", "Measured property": "self-aminoacylation", "Recorded result": 1.38}
{"Sequence text": "AUUACCCUGAUCAUCGAAUGA [Fam2.1 aminoacylation ribozyme variant]", "Measured property": "self-aminoacylation", "Recorded result": 0.93}
{"Sequence text": "CGACACUUCAAGAAAUCGGUC [Fam1B.1 aminoacylation ribozyme variant]", "Measured property": "self-aminoacylation", "Recorded result": 1.25}

I'm hoping you can list self-aminoacylation for every sequence here, please.
1. CCACACUUCAUGCAAUCGGUG [Fam1B.1 aminoacylation ribozyme variant]
2. CUACAUCAAACAAUCGGACUG [Fam1A.1 aminoacylation ribozyme variant]
3. CCACACUCCAAGCAAUCGGCC [Fam1B.1 aminoacylation ribozyme variant]

1. 4.27
2. 0.804
3. 1.36

I'm hoping you can list self-aminoacylation for every sequence here, please.
1. AUUCAGCUAGGUCAUCAGGUG [Fam2.2 aminoacylation ribozyme variant]
2. CAGUUAGCUAAUAGUCGCAAG [Fam3.1 aminoacylation ribozyme variant]
3. AUUCACCUAGAUCAUCGGUUG [Fam2.2 aminoacylation ribozyme variant]
4. CUACUUCAUACAACCGGUCUG [Fam1A.1 aminoacylation ribozyme variant]

1. 2.38
2. 1.17
3. 0.778
4. 0.621

====

- System: biotinyl-Trp-oxazolone
- Experimental protocol: self-aminoacylation, catalytic enhancement (BWO) (fold over background); higher = more active; k-Seq, kA / k0A0; sequences stand for … in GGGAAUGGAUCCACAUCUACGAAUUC…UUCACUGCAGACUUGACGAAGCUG
Variants at the floor of the assay were thinned out.
Please note: Satisfied applies when self-aminoacylation is 2 or greater, and Not satisfied applies otherwise.

{"Sequence text": "UUACUUCAAACCAUCGGUCUG [Fam1A.1 aminoacylation ribozyme variant]", "Classification": "Not satisfied"}
{"Sequence text": "CGACUUCAAACAACCGGUCUG [Fam1A.1 aminoacylation ribozyme variant]", "Classification": "Satisfied"}
{"Sequence text": "CCACUCCUCAAGCAAUCGGUC [Fam1B.1 aminoacylation ribozyme variant]", "Classification": "Not satisfied"}
{"Sequence text": "AUACACCUAGGUCAUCGGGUU [Fam2.2 aminoacylation ribozyme variant]", "Classification": "Satisfied"}
{"Sequence text": "CUUCACCUACGUCAUCGGGUG [Fam2.2 aminoacylation ribozyme variant]", "Classification": "Satisfied"}
{"Sequence text": "AAGGUUCCUAAUAGUCGCAAG [Fam3.1 aminoacylation ribozyme variant]", "Classification": "Not satisfied"}

Answer whether self-aminoacylation of CUACUUGAAACAAUCGGUCUC [Fam1A.1 aminoacylation ribozyme variant] is greater than or equal to 2.
Not satisfied

Answer whether self-aminoacylation of CUUCACCUAGGUCAUCGCGUG [Fam2.2 aminoacylation ribozyme variant] is greater than or equal to 2.
Satisfied

Answer whether self-aminoacylation of AGUCACCUAGGUCAUCGGCUG [Fam2.2 aminoacylation ribozyme variant] is greater than or equal to 2.
Satisfied

Answer whether self-aminoacylation of AUUACACUGGUCAUCGACUGA [Fam2.1 aminoacylation ribozyme variant] is greater than or equal to 2.
Not satisfied

Answer whether self-aminoacylation of CCACUUCUAACAAUCGGUCUG [Fam1A.1 aminoacylation ribozyme variant] is greater than or equal to 2.
Not satisfied
